Across several publications, the following pKi results were reported for UniProt P30543.
pKi: −log10 of the molar value.
Classify as follows. Reported pKi greater than or equal to 6: criterion met. Reported pKi below: criterion not met.

compound | label-class
CC(C(O)c1ccccc1)N1CCCn2c1nc1c2c(=O)n(C)c(=O)n1C (centres undefined) | criterion not met
Nc1nc(NC[C@H]2CCCN2Cc2ccccc2F)nc2nc(-c3ccco3)nn12 | criterion met
Nc1nc(OCCc2cccc(F)c2)nc2c1ncn2[C@@H]1O[C@H](CO)[C@@H](O)[C@H]1O (stereo in doubt; 24) | criterion met
CCCOC(=O)c1c(-c2cccc(F)c2)nc(CC)c(C(=O)SCC)c1CCC | criterion not met
CC(c1ccccc1)n1c2ccccc2c2c(N)ncnc21 (centres undefined) | criterion not met
CCNC(=O)[C@H]1OC(n2cnc3c(N)nc(C#CNCCc4ccc(CC(=O)OC)cc4)nc32)[C@H](O)[C@@H]1O (some centres undefined) | criterion met
Nc1nc(N/N=C/C2CCCCC2)nc2c1ncn2[C@@H]1O[C@H](CO)[C@@H](O)[C@H]1O | criterion met
Nc1nc(C#CCC2CCCCC2)cn2nc(-c3ccco3)nc12 | criterion met
COc1cccc(CCN2CCn3c(nc4c3c(=O)n(C)c(=O)n4C)C2)c1OC | criterion not met
C#CCn1c(=O)c2c(nc(/C=C/c3cccc(N)c3)n2C)n(C)c1=O | criterion met
Nc1nc(N/N=C/C=C/c2ccc([N+](=O)[O-])cc2)nc2c1ncn2[C@@H]1O[C@H](CO)[C@@H](O)[C@H]1O | criterion met
CCCc1nc2c(cnn2-c2ccccc2)c2n[nH]c(=S)n12 | criterion not met
CCCC(Sc1nc(SC)c2cnn(-c3ccccc3)c2n1)C(N)=O (centres undefined) | criterion not met
OC[C@H]1OC(n2cnc3c(NC4CCCCCC4)ccnc32)[C@H](O)[C@@H]1O (some centres undefined) | criterion not met
CC(=O)N1CC[C@@H](Nc2ncnc3c2ncn3[C@@H]2O[C@H](CO)[C@@H](O)[C@H]2O)C1 | criterion not met
CCNC(=O)[C@H]1O[C@@H](n2cnc3c(NC(=O)NCc4ccco4)ncnc32)[C@H](O)[C@@H]1O | criterion not met

----------
Across several publications, the following Ki results were reported for Adenosine receptor A2a (Rattus norvegicus).
Each record's class is read off its Ki using these ranges: low = under 300 nM, middle = from 300 nM up to 5000 nM, high = 5000 nM and over

compound | label-class
CCNC(=O)[C@H]1O[C@@H](n2cnc3c(NC(=O)Nc4ccccc4OC)ncnc32)[C@H](O)[C@@H]1O | middle
Nc1nc(-c2ccc(OCCNC(=O)CCCCC3CCSS3)cc2)cn2c(=O)n(-c3ccccc3)nc12 (stereo not given) | low
Cn1c(=O)c2[nH]c(-c3ccccc3)nc2n(C)c1=O | middle
Cn1c(=O)c2c(nc(/C=C/C(=O)OC(C)(C)C)n2C)n(C)c1=O | middle
CNC(=O)[C@H]1O[C@@H](n2cnc3c(NC(=O)Nc4cccc(Cl)c4)ncnc32)[C@H](O)[C@@H]1O | high
CCC1CN2C(=O)N(C)c3ncn(C)c3C2=N1 (stereo not given) | high
Cn1c(=O)c2c(nc3n2CCCN3Cc2ccccc2)n(C)c1=O | middle
Cn1c(=O)n(Cc2ccccc2)c(=O)c2[nH]cnc21 | middle
CCCOC(=O)c1c(CCC)c(C(=O)SCC)c(CCOCc2ccccc2)[n+](C)c1-c1ccccc1 | high
CCCn1c(=O)[nH]c2nc(-c3ccc(S(=O)(=O)N4CCN(Cc5ccccc5)CC4)cc3)[nH]c2c1=O | low
COc1cccc(-c2cn3nc(-c4ccco4)nc3c(N)n2)c1 | low
CCCn1c(=O)c2nc(-c3ccc(OCC(=O)NCCNC(=O)CN(CC(=O)O)C(=O)CCC(=O)O)cc3)[nH]c2n(CCC)c1=O | high
C#CCn1c(=O)c2c(nc(/C=C/c3cccc(O)c3)n2C)n(C)c1=O | low
Cn1c(=O)c2c(nc3n2CCN(CCc2ccccc2F)C3)n(C)c1=O | high
CCCOCCc1nc(N)c2ncn(C3O[C@H](CO)[C@@H](O)[C@H]3O)c2n1 (stereo not given in full) | low
CCNC(=O)[C@H]1O[C@@H](n2cnc3c(NC(=O)Nc4ccccc4F)ncnc32)[C@H](O)[C@@H]1O | middle
Nc1nc2c(cnn2Cc2ccc(O)cc2)c2nc(-c3ccco3)nn12 | low
CCNC(=O)[C@H]1OC(n2cnc3c(N)nc(C#Cc4ccc([N+](=O)[O-])cc4)nc32)[C@H](O)[C@@H]1O (stereo not given in full) | low
CCOC(=O)C1=C(c2ccccc2)N=C(C)/C(=C(/O)OCC)C1CC (stereo not given) | high
